Recorded activity change, positive = activation for the following compounds
assay: qHTS assay to identify small molecule agonists of the estrogen related receptor (ERR) signaling pathway from Tox21 library (AID 1224849); settings: ERR reporter cell line, ONE-Glo luciferase, 18 h; at 42.5 µM (top of the series); further: on the % scale 0 is the no-effect control and ±100 the full control effect; nearly all actives have a fitted effect of over 15% in size
experimental.readout: activity change, positive = activation (%)

>>> readout_value("O=C(O)c1cc(Oc2ccc(C(F)(F)F)cc2Cl)ccc1[N+](=O)[O-]")
9.01
>>> readout_value("Cc1cc(O)ccc1Cl")
6.83
>>> readout_value("CC(C)c1cccc(C(C)C)c1O")
-0.995
>>> readout_value("COC(C)(C)CCCC(C)C/C=C/C(C)=C/C(=O)OC(C)C (stereo not drawn)")
0.0177
>>> readout_value("O=C(O)Cc1ccccc1")
-0.0869
>>> readout_value("CNCC(O)c1ccc(O)cc1 (stereo not drawn)")
12.7
>>> readout_value("O=P1(NCCCl)OCCCN1CCCl (stereo not drawn)")
-0.35
>>> readout_value("O=[N+]([O-])c1cc([As](=O)(O)O)ccc1O")
-1.93

* * *

test: qHTS assay to identify small molecule antagonists of the estrogen related receptor (ERR) signaling pathway from Tox21 library - cell viability counter screen (AID 1224834); conditions: ERR reporter cells viability, CellTiter-Fluor, 17.5 h; series mostly up to 92.4 µM; further: nearly all actives have a fitted effect of over 30% in size
Inconclusive results are not listed. Activity calls are given as the source filed them. Calls come from the whole dose curve; as a rule, active = well fitted cell-killing curve with a large enough effect in the repeat runs; inconclusive = weak or mixed curves; inactive = flat fitted curve, though single readings scatter.
Classes used: 1 (yes) for active, 0 (no) for inactive

>>> discrete_label("O=C/C=C/c1ccccc1")
"0 (no)"
>>> discrete_label("CN(C)C(=O)Cl")
"0 (no)"
>>> discrete_label("C[C@H]1C(=O)O[C@@H]2CCN3CC=C(COC(=O)[C@](C)(O)[C@]1(C)O)[C@H]23")
"0 (no)"
>>> discrete_label("CN(C)NC(=O)CCC(=O)O")
"0 (no)"
>>> discrete_label("Cc1cccc(C)c1NC(=O)CN1CCCC1=O")
"0 (no)"
>>> discrete_label("O=C(O)COc1ccccc1")
"0 (no)"
>>> discrete_label("N#Cc1cccc(C#N)c1")
"0 (no)"
>>> discrete_label("Cc1cc(O)ccc1Cl")
"0 (no)"
>>> discrete_label("C=CCN=C=S")
"0 (no)"
>>> discrete_label("Clc1cnc(Oc2ccc(Oc3ncc(Cl)cc3Cl)cc2)c(Cl)c1")
"0 (no)"
>>> discrete_label("CCCCC(CC)C(=O)Cl (centres undefined)")
"0 (no)"
>>> discrete_label("CNC(=O)Oc1cccc2ccccc12")
"0 (no)"
>>> discrete_label("CCOc1ccc(N)cc1")
"0 (no)"
>>> discrete_label("COC(=O)Nc1cccc(OC(=O)Nc2cccc(C)c2)c1")
"0 (no)"
>>> discrete_label("CCSC(=O)N1CCCCCC1")
"0 (no)"
>>> discrete_label("C=CC(=O)OCC(CC)CCCC (centres undefined)")
"0 (no)"
>>> discrete_label("O=C(O)CCCc1ccc(N(CCCl)CCCl)cc1")
"0 (no)"
>>> discrete_label("O=S(=O)(O)OOS(=O)(=O)O")
"0 (no)"
>>> discrete_label("ClCCOCCCl")
"0 (no)"
>>> discrete_label("CNc1cnn(-c2cccc(C(F)(F)F)c2)c(=O)c1Cl")
"0 (no)"
>>> discrete_label("Oc1ccc(Cl)cc1")
"0 (no)"
>>> discrete_label("C=CC#N")
"0 (no)"
>>> discrete_label("COc1cc(-c2ccc(N)c(OC)c2)ccc1N")
"1 (yes)"
>>> discrete_label("CCCOC(=O)c1ccccc1C(=O)OCCC")
"0 (no)"
>>> discrete_label("CCOC(=O)CC(SP(=O)(OC)OC)C(=O)OCC (centres undefined)")
"0 (no)"
>>> discrete_label("O=[N+]([O-])c1ccc(Cl)cc1")
"0 (no)"
>>> discrete_label("CNC(=O)O/N=C(\\SC)C(=O)N(C)C")
"0 (no)"
>>> discrete_label("OCCCCO")
"0 (no)"
>>> discrete_label("O=P1(NCCCl)OCCCN1CCCl (centres undefined)")
"0 (no)"
>>> discrete_label("Cc1cccc(N)c1C")
"0 (no)"
>>> discrete_label("Cc1ccccc1N")
"0 (no)"
>>> discrete_label("CNCC(O)c1ccc(O)cc1 (centres undefined)")
"0 (no)"
>>> discrete_label("ClC(Cl)c1ccccc1")
"0 (no)"
>>> discrete_label("Cc1cccc(C)c1N")
"0 (no)"

* * *

assay: qHTS assay to test for compound auto fluorescence at 535 nm (green) in HEK293 cells (AID 720680); conditions: green autofluorescence 485/535 nm; series mostly up to 91.3 µM; further: on the % scale 0 is the no-effect control and ±100 the full control effect
Active and inactive are the calls of the source. The call rests on the fitted dose curve; in most records, active means well fitted curve in the direction sought with a large enough effect in the repeat runs; inconclusive means weak or mixed curves; inactive means flat fitted curve, though single readings scatter.
experimental.readout: outcome

>>> readout_value("COS(=O)(=O)OC")
"inactive"
>>> readout_value("COP(=S)(OC)SCN1C(=O)c2ccccc2C1=O")
"inactive"
>>> readout_value("Nc1ccc(N)cc1")
"inactive"
>>> readout_value("CC(=O)/C=C/c1ccccc1")
"inactive"
>>> readout_value("O=C(O)CCCc1ccc(N(CCCl)CCCl)cc1")
"inactive"
>>> readout_value("N#Cc1ccccn1")
"inactive"
>>> readout_value("COc1nc(NC(C)C)nc(NC(C)C)n1")
"inactive"
>>> readout_value("O=C(O)Cc1ccccc1")
"inactive"
>>> readout_value("[N-]=[N+]=CC(=O)OC[C@H](N)C(=O)O")
"inactive"
>>> readout_value("O=C(O)C(Br)Br")
"inactive"
>>> readout_value("C=CC(=O)OCC(CC)CCCC (stereo unspecified)")
"inactive"
>>> readout_value("Cl/C=C/Cl")
"inactive"
>>> readout_value("CCOc1ccc(N)cc1")
"inactive"
>>> readout_value("Nc1ncc([N+](=O)[O-])s1")
"inactive"
>>> readout_value("CNC(=O)Oc1cccc2ccccc12")
"inactive"
>>> readout_value("Cc1ccc(O)c(C)c1")
"inactive"

* * *

Assay: qHTS assay to test for compound auto fluorescence at 590 nm (red) in HepG2 cell free culture (AID 720684); further: on the % scale 0 is the no-effect control and ±100 the full control effect
Conditions: cell-free medium autofluorescence, red 540/590 nm; series mostly up to 91.3 µM
Text: U.S. Tox21 Program National Center for Advancing Translational Sciences [NCATS] NIH Chemical Genomics Center [NCGC] U.S. Environmental Protection Agency [EPA] National Institutes of Environmental Health Sciences [NIEHS] National Toxicology Program [NTP] U.S. Food and Drug Administration [FDA] Tox21 Assay Overview: Compound auto fluorescence often interferes with screening of the compound library against various biological targets and signaling pathways. […] This assay includes the red fluorescence data. […]
Activity calls are given as the source filed them. Calls follow the shape of the dose curve; as a rule, active = well fitted curve in the direction sought with a large enough effect in the repeat runs; inconclusive = weak or mixed curves; inactive = flat fitted curve, though single readings scatter.
experimental.readout: outcome

>>> readout_value("COC(=O)Nc1cccc(OC(=O)Nc2cccc(C)c2)c1")
"inactive"
>>> readout_value("CC(C)CCCCCCOC(=O)c1ccccc1C(=O)OCCCCCCC(C)C")
"inactive"
>>> readout_value("c1ccc2c(c1)CCCC2")
"inactive"

* * *

assay: qHTS assay for identifying genotoxic compounds that show differential cytotoxicity against isogenic chicken DT40 cell lines with known DNA damage response pathways - wild type cell line (AID 743012); conditions: DT40 wild type chicken cells viability, CellTiter-Glo, 40 h; series mostly up to 68.4 µM; further: nearly all actives have a fitted effect of over 60% in size
Inconclusive results are not listed. Active and inactive are the calls of the source. Calls follow the shape of the dose curve; as a rule, active = well fitted cell-killing curve with a large enough effect in the repeat runs; inconclusive = weak or mixed curves, or effect the other way; inactive = no such curve, though single readings can be large or run the other way.
Classes used: y for active, n for inactive

>>> discrete_label("CN(C)CCC#N")
"n"
>>> discrete_label("Cl[C@H]1OCCO[C@@H]1Cl")
"n"
>>> discrete_label("ClCCOCCCl")
"n"
>>> discrete_label("FC(F)(F)c1ccc(Cl)cc1")
"n"
>>> discrete_label("Cc1ccc(N)cc1")
"n"
>>> discrete_label("CNC(=O)O/N=C/C(C)(C)SC")
"n"
>>> discrete_label("Cc1ccc(N=C=O)cc1N=C=O")
"n"
>>> discrete_label("CC(=O)C1CCOC1=O (stereo unspecified)")
"n"
>>> discrete_label("CN(C)C(=O)Cl")
"n"
>>> discrete_label("Cc1ccccc1N")
"n"
>>> discrete_label("CNCC(O)c1ccc(O)cc1 (stereo unspecified)")
"n"
>>> discrete_label("C[C@]12CC[C@H](O)CC1=CC[C@@H]1[C@@H]2CC[C@]2(C)C(=O)CC[C@@H]12")
"y"
>>> discrete_label("CCOP(=S)(OCC)Oc1cc(C)nc(C(C)C)n1")
"n"
>>> discrete_label("O=[N+]([O-])c1ccc(Cl)cc1")
"n"
>>> discrete_label("CC(C)(C)C(=O)CCl")
"n"
>>> discrete_label("Cc1cccc(N)c1")
"n"

* * *

experiment: qHTS assay for small molecule agonists of the p53 signaling pathway - cell viability (AID 651633); conditions: p53RE-bla HCT-116 viability, ATP luminescence, 16 h; series mostly up to 83.3 µM;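 further: p53RE-bla HCT reporter cells with a stable beta-lactamase p53 reporter; on the % scale 0 is the no-effect control and ±100 the full control effect; nearly all actives have a fitted effect of over 30% in size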
Records with an inconclusive call do not appear. The source made the active and inactive calls. Calls come from the whole dose curve.
experimental.readout: outcome

>>> readout_value("O=C(O)CCCc1ccc(N(CCCl)CCCl)cc1")
"inactive"
>>> readout_value("Cc1cccc(C)c1NC(=O)CN1CCCC1=O")
"inactive"
>>> readout_value("CC(C)c1cccc(C(C)C)c1O")
"inactive"
>>> readout_value("CN(C)NC(=O)CCC(=O)O")
"inactive"
>>> readout_value("O=C(O)Cc1ccccc1")
"inactive"
>>> readout_value("CNC(=O)O/N=C(\\SC)C(=O)N(C)C")
"inactive"
>>> readout_value("COc1nc(NC(C)C)nc(NC(C)C)n1")
"inactive"
>>> readout_value("Cc1cccc(N)c1C")
"inactive"
